The reported measurements were obtained from ChEMBL document CHEMBL5303304.

Test system: U2OS
Assay: Incucyte cell viability with U2OS; further: unitless GR value; below 1 slowed growth and below 0 cell loss
Type: toxicity, cell-based
Conditions: human, 24 h, 10 µM, compound concentration 10 uM, replicate number 2
Lab note: compare Growth Rate against 0.8. Equal or greater, write TRUE. Smaller, write FALSE.

The following compounds have reported results that may help.
1) CC(C)[C@H](C(=O)Nc1ccc(C(=O)NO)cc1)c1ccccc1 ... FALSE
2) Cc1cc([N+](=O)[O-])c(NS(=O)(=O)c2cccc(C(=O)O)c2)cc1-c1cccnc1 ... FALSE
3) CC(C)N(CCCCOCC(=O)O)c1cnc(-c2ccccc2)c(-c2ccccc2)n1 ... TRUE
4) Cc1ncc(C(=O)Nc2cc(C(C)(C)C)on2)cc1-n1cc(-c2cnn(C)c2C)nn1.Cl ... FALSE

// inclusive: Growth Rate at least 0.8? input: CCS(=O)(=O)c1ccc(OC)c(Nc2ncc(-c3cccc(F)c3)o2)c1 [GW621970X] FALSE

// inclusive: Growth Rate at least 0.8? input: "Cl.Clc1ccc(OC[C@H]2CCN2)cn1" TRUE

// inclusive: Growth Rate at least 0.8? input: "O=C(NCC1(N2CCN(c3ccccc3)CC2)CCOCC1)c1cccnc1Sc1ccccc1" TRUE

// inclusive: Growth Rate at least 0.8? input: "NC(=O)c1cc(-c2ccnc(NC3CCCCC3)c2)nc(N2CCNCC2)c1" FALSE

// inclusive: Growth Rate at least 0.8? input: CC(C1CC2CCC1C2)n1c(S)nnc1-c1ccco1 (centres undefined) TRUE

====

# reported Growth Rate; entries follow
Tested on: U2OS
Assay: Incucyte cell viability with U2OS; further: unitless GR value; below 1 slowed growth and below 0 cell loss
Type: toxicity, cell-based
Conditions: human, 12 h, 10 µM, compound concentration 10 uM, replicate number 1
Please give the numeric answer without any surrounding text.

A selection of reference data follows.
1. CC(C(=O)Nc1cc(C#N)ccc1CCCC(=O)O)c1ccc(F)c2ccccc12 (stereo not given) ... 0.72
2. CCOc1ccc(S(=O)(=O)Nc2ccc(Cl)cc2C#Cc2cnc(C(=O)[O-])cc2OC)c2ncccc12.[K+] ... 0.95
3. COc1cc(C(N)=O)ccc1Nc1ncc2c(n1)N(CCC(C)C)[C@H](C)C(=O)N2C ... -0.71
4. COc1cc([N+](=O)[O-])ccc1NC(=O)c1ccccc1O ... 0.27

Continue with the compound presented below.
Return Growth Rate (reported value) for this compound: "CCO[C@H](COc1ccc(C(F)(F)F)cc1)CSc1ccc(OCC(=O)[O-])c(C)c1.[Na+]" 0.94

====

# reported Growth Rate; entries follow
System: HEK-293T
Experiment: Incucyte cell viability with HEK293T; further: unitless GR value; below 1 slowed growth and below 0 cell loss
Format: toxicity, cell-based
Details: human, 18 h, 10 µM, compound concentration 10 uM, replicate number 2
Please give the numeric answer without any surrounding text.

A selection of reference data follows.
1. COc1cc(Nc2cnc(C#N)c(O[C@H](C)CN(C)C)n2)ncc1-c1cnn(C)c1 ... -0.32
2. COc1ccc2nc3ccc(OC)cc3c(SCCCN)c2c1.Cl ... 0.45
3. Cn1c(C2(NC(=O)c3ccc4c(C5CCCC5)c(-c5ncc(Br)cn5)n(C)c4c3)CCC2)nc2ccc(/C=C/C(=O)[O-])cc21.[Na+] [DELEOBUVIR SODIUM] ... 0.81
4. CC(C)(O)C(=O)N1CCN(c2ccc(C(F)(F)F)c(C3=C(c4c[nH]c5ccccc45)C(=O)NC3=O)c2)CC1 ... 0.49
5. O=C(NC[C@@H]1[C@H]2CN(C(=O)OCc3cc(C(F)(F)F)cc(C(F)(F)F)c3)C[C@@H]12)c1ccc2[nH]nnc2c1 ... 0.94
6. CCCCC[C@H](O)/C=C/[C@H]1[C@H](O)CC(=O)[C@@H]1CCCCCCC(=O)O ... 0.98

Continue with the molecule presented below.
Return Growth Rate (reported value) for this molecule: "[2H]C([2H])([2H])NC(=O)c1nnc(NC(=O)C2CC2)cc1Nc1cccc(-c2ncn(C)n2)c1OC" 0.68

====

Tested on: HEK-293T
Assay: Incucyte cell viability with HEK293T; further: unitless GR value; below 1 slowed growth and below 0 cell loss
Assay type: toxicity, cell-based
Conditions: human, 12 h, 10 µM, compound concentration 10 uM, replicate number 2
Threshold-based label: Growth Rate under 0.8 gives True, Growth Rate not under 0.8 gives False.

The following compounds have reported results that may help.
1) Cc1nnsc1C(=O)Nc1ccc(-n2nc(C(F)(F)F)cc2C(F)(F)F)cc1 ... True
2) Cc1c(CN2CCC3(CC2)CN(c2ncnc4sc(CC(F)(F)F)cc24)C3)ccc2c1cc(C#N)n2CC(N)=O ... True
3) CC1(C)CCC[C@]2(C)[C@@H](C=O)C(C=O)=CC[C@@H]12 [POLYGODIAL] ... True
4) Oc1cccc(Nc2ccnc3[nH]c4ccccc4c23)c1 ... True
5) Cl.Cl.O=C1c2ccccc2C(Cc2ccncc2)(Cc2ccncc2)c2ccccc21 ... False

Record Cc1cc(C(C#N)c2ccc(Cl)cc2)c(Cl)cc1NC(=O)c1cc(I)cc(I)c1O (centres undefined) [CLOSANTEL] : is its Growth Rate strictly below 0.8? False

Record c1cnc2cc3c(cc2n1)[C@@H]1CNC[C@H]3C1 [VARENICLINE] : is its Growth Rate strictly below 0.8? False

Record "Cc1cc(OCc2nc3ccccc3s2)ccc1NC(=O)Nc1ccc(Cl)c(Cl)c1" : is its Growth Rate strictly below 0.8? False

====

Test system: U2OS
Assay: Incucyte cell viability with U2OS; further: unitless GR value; below 1 slowed growth and below 0 cell loss
Type: toxicity, cell-based
Conditions: human, 24 h, 10 µM, compound concentration 10 uM, replicate number 1
measured property: Growth Rate
Please give the numeric answer without any surrounding text.

1. CC(C)C(=O)N[C@@H]1CCN(C(=O)Nc2nc3c(s2)-c2nc(-c4ccccc4Cl)ncc2CC3)C1 ... 0.88

Report value only: Growth Rate, U2OS, "CCN1CCN(Cc2ccc(Nc3ncc(F)c(-c4cc(F)c5nc(C)n(C(C)C)c5c4)n3)nc2)CC1" 0.63

Report value only: Growth Rate, U2OS, "O=C(Nc1c(-c2cccs2)nc2ccc(Cl)cn12)c1ccc(Cl)cc1" 0.97

Report value only: Growth Rate, U2OS, CN(C)C(=O)c1cc2cnc(Nc3ccc(N4CCN(CCCCNC(=O)COc5cccc6c5C(=O)N(C5CCC(=O)NC5=O)C6=O)CC4)cn3)nc2n1C1CCCC1 (centres undefined) 0.95

Report value only: Growth Rate, U2OS, O=C(CNC(=O)c1ccc(-c2ccccc2)cc1)NC1CCCc2ccccc21 (centres undefined) 0.55

Report value only: Growth Rate, U2OS, "COc1c(C(=O)/C=C/c2ccccc2)c(O)c(OC)c2occc12" 0.78

Report value only: Growth Rate, U2OS, "Cn1nc(-c2ccc(C(N)=O)cc2)c2ccccc2c1=O" 0.96

Report value only: Growth Rate, U2OS, "NC1(c2ccc(-c3nc4c(O)ccnn4c3-c3ccccc3)cc2)CCC1" 0.89

Report value only: Growth Rate, U2OS, "COc1cc([N+](=O)[O-])ccc1NC(=O)c1ccccc1O" 0.48

====

System: Fibroblast
Assay: Incucyte cell viability with human fibroblast; further: unitless GR value; below 1 slowed growth and below 0 cell loss
Format: toxicity, cell-based
Conditions: 12 h, 10 µM, compound concentration 10 uM, replicate number 2
measured property: Growth Rate
Please give the numeric answer without any surrounding text.

1. CN[C@@H](C)C(=O)N[C@H](C(=O)N1CCC[C@H]1C(=O)N[C@@H]1CCCc2ccccc21)C1CCCCC1.Cl ... 0.89

Return Growth Rate (reported value) for this compound: "COc1cc(Nc2ccc([N+](=O)[O-])cc2C(=O)O)cc2ccccc12" 0.4

Return Growth Rate (reported value) for this compound: "COc1cc(C(=O)O)ncc1C#Cc1ccccc1NS(=O)(=O)c1cccc2c(N(C)C)ccnc12" 0.77

Return Growth Rate (reported value) for this compound: "CCCN1C(=O)c2ccc(Cl)cc2Nc2ncccc21" 0.55

Return Growth Rate (reported value) for this compound: CCCCC[C@@](C)(O)/C=C/[C@H]1C(=O)CC(O)C1C/C=C\CCCC(=O)O (some centres undefined) 0.2

Return Growth Rate (reported value) for this compound: "Cl.c1ccc2c(c1)CCC[C@H]2Nc1nc2ccccc2[nH]1" 0.56

Return Growth Rate (reported value) for this compound: "Cc1c(-c2c(F)cc(C(N)=O)c3[nH]c4c(c23)CC[C@H](C(C)(C)O)C4)cccc1-n1c(=O)c2cccc(F)c2n(C)c1=O" 0.19

Return Growth Rate (reported value) for this compound: "COc1ccc(S(=O)(=O)N2CCOCC2)cc1Nc1ccc2c(n1)N(C1CCN(C)CC1)[C@H](C)C(=O)N2C" 0.26

Return Growth Rate (reported value) for this compound: "CC1(C)Cc2nc(C3CCCC3)c([C@@H](F)c3ccc(C(F)(F)F)cc3)c(C3CCCCC3)c2[C@@H](O)C1" 0.89

====

# reported Growth Rate; entries follow
System: Fibroblast
Assay: Incucyte cell viability with human fibroblast; further: unitless GR value; below 1 slowed growth and below 0 cell loss
Assay type: toxicity, cell-based
Conditions: 18 h, 10 µM, compound concentration 10 uM, replicate number 2
Please give the numeric answer without any surrounding text.

1) O=C(O)[C@]1(Cc2cccc(Nc3nccs3)n2)CC[C@@H](Oc2cccc(Cl)c2F)CC1 ... 0.26

Return Growth Rate (reported value) for this molecule: "C=C[C@@]12CCc3cc(O)ccc3[C@H]1CC[C@@]1(C)[C@H]2CC[C@@H]1O" 0.95

Return Growth Rate (reported value) for this molecule: "N=C(N)NCCC[C@@H](NC(=O)C(c1ccccc1)c1ccccc1)C(=O)NCc1ccc(CNC(N)=O)cc1.O=C(O)C(F)(F)F" 0.94

Return Growth Rate (reported value) for this molecule: "CCCC(=O)C1CCN(c2ncnc3c2CN(C(=O)c2ccc(-c4ccccc4)cc2)CC3)CC1" 0.93

Return Growth Rate (reported value) for this molecule: "C=CC(=O)Nc1cccc(C)c1Nc1ncc2cc(-c3c(Cl)c(OC)cc(OC)c3Cl)ccc2n1" 0.44

Return Growth Rate (reported value) for this molecule: OCC1OC(n2cnc3cc(Cl)c(Cl)cc32)C(O)C1O (centres undefined) 0.86

Return Growth Rate (reported value) for this molecule: "Cn1c(Nc2c(Cl)cccc2Cl)nc2ccc3nc[nH]c(=O)c3c21" 0.42

Return Growth Rate (reported value) for this molecule: "CC1(C)Cc2nc(C3CCCC3)c([C@@H](F)c3ccc(C(F)(F)F)cc3)c(C3CCCCC3)c2[C@@H](O)C1" 0.82

Return Growth Rate (reported value) for this molecule: "COC1(C#Cc2ccc(Cl)c(-c3ncc4c(n3)-c3sc(NC(C)=O)nc3CC4)c2)CCN(C)CC1" -0.14
